Assign pIC50 to each entry below.
ASSAYED_SYSTEM: Transient receptor potential cation channel subfamily M member 8 (Rattus norvegicus)
Sequence (Q8R455 whole entry): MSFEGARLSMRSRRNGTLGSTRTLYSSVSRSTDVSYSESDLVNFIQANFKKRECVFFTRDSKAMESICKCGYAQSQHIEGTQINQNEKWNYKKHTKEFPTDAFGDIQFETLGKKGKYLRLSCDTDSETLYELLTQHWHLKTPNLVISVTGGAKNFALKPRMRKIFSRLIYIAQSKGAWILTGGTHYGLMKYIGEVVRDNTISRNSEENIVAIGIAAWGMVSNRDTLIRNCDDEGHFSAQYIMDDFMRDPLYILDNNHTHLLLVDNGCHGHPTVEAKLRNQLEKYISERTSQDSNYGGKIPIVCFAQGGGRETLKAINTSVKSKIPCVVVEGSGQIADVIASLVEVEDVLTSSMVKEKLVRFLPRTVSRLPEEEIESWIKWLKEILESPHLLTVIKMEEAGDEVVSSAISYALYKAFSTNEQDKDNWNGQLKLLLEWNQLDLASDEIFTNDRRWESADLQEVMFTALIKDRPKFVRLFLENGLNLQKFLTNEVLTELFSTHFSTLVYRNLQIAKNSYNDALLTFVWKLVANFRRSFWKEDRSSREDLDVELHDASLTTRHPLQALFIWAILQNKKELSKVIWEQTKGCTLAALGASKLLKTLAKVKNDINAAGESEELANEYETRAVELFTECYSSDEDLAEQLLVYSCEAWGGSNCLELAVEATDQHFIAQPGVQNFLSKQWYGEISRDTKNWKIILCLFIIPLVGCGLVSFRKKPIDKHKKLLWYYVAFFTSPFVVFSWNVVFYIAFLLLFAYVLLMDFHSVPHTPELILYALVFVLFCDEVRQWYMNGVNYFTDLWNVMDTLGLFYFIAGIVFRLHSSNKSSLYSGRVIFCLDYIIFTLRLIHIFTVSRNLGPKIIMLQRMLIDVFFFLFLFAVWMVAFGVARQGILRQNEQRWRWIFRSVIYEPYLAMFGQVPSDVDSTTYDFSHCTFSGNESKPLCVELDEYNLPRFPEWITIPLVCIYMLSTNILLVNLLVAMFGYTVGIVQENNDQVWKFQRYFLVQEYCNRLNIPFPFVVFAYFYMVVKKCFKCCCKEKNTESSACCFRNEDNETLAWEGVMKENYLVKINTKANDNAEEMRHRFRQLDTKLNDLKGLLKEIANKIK
PROTOCOL_TEXT: Antagonist activity at rat TRPM8 expressed in HEK293 cells assessed as reduction in menthol-induced channel currents by whole cell patch clamp method
Type: cell-based
Keep it numeric: pIC50 is minus log10 of the concentration in mol/L.

Checklist item: pIC50 tested on Transient receptor potential cation channel subfamily M member 8 (Rattus norvegicus), entry `COC(=O)[C@@H](Cc1c[nH]c2ccccc12)N(Cc1ccccc1)Cc1ccccc1` , value? 6.06

Checklist item: pIC50 tested on Transient receptor potential cation channel subfamily M member 8 (Rattus norvegicus), entry `COC(=O)[C@H](Cc1c[nH]c2ccccc12)N(Cc1ccccc1)Cc1ccccc1` , value? 9.70

Checklist item: pIC50 tested on Transient receptor potential cation channel subfamily M member 8 (Rattus norvegicus), entry `c1ccc(CN(CCc2c[nH]c3ccccc23)CC2CCCCC2)cc1` , value? 8.46
